- Tested on: SAGPY (Sagittaria pygmaea)
- Measurement Protocol: Flooded paddy, preemergence weed control
- Format: in vivo, L.
- Condition Context: rate 0.1250 kg/ha, rated 3-4 weeks after treatment, 0-9 rating scale
Rule: herbicidal rating, SAGPY of 5 or more gives Yes; anything lower gives No.

Example results:
Cn1c(C(F)(F)F)cc(=O)n(-c2ccc3snc(-c4ccoc4)c3c2)c1=O :: No
C[C@@H]1OC(c2nsc3cc(F)c(-n4c(=O)cc(C(F)(F)F)n(C)c4=O)cc23)O[C@@H]1C (stereo partly shown) :: Yes
CC1=CC(C)(C)OC(c2nsc3ccc(-n4c(=O)cc(C(F)(F)F)n(C)c4=O)cc23)C1 (stereo not shown) :: No
C[C@@H]1C[C@H](C)OC(c2nsc3cc(F)c(-n4c(=O)cc(C(F)(F)F)n(C)c4=O)cc23)O1 (stereo partly shown) :: Yes
Cn1c(C(F)(F)F)cc(=O)n(-c2ccc3snc(C4OCCO4)c3c2)c1=O :: Yes
C[C@H]1O[C@@H]1c1nsc2ccc(-n3c(=O)cc(C(F)(F)F)n(C)c3=O)cc12 :: Yes
CCOc1cc(OCC)nc(-c2nsc3ccc(-n4c(=O)cc(C(F)(F)F)n(C)c4=O)cc23)n1 :: No
Cc1ccc(-c2nsc3ccc(-n4c(=O)cc(C(F)(F)F)n(C)c4=O)cc23)s1 :: Yes

Alright, here's another compound for you.
Please indicate if the recorded herbicidal rating, SAGPY for Cc1ccsc1-c1nsc2ccc(-n3c(=O)cc(C(F)(F)F)n(C)c3=O)cc12 meets or exceeds 5.
Yes
